Where these numbers come from: patent US20250188176A1

Answer each item with its documented Ratio WT-kd/clone-kd.
Biological target: T1, Extracellular domain (ECD) of the canine IL-4 receptor alpha-V5 epitope-AviTag-His Tag (canine)
T1 construct: monomeric form isolated by size exclusion; also called canine IL-4RA-V5-Avi-His; canine IL-4RA
T1 chain: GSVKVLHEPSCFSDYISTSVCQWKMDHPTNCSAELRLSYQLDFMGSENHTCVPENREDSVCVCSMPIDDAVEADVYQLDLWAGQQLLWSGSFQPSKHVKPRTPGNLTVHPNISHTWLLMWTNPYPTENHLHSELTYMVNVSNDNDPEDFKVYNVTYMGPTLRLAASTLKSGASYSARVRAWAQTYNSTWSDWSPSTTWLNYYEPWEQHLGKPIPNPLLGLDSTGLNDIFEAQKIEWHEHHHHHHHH
Test: SPR, Fab-SASA captured on BSA;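 further: biacore T200 SPR, Fab-SASA variants from E. coli conditioned medium captured on BSA-coated CM5 chip, canine IL-4RA injected 120 s then 420 s dissociation, 1:1 model fit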
Would you mind answering with just the numeric figure?

Looking for the measured Ratio WT-kd/clone-kd of TB640_005 Fab-SASA VH-K103R (Fab, V domains shown, not shown: SASA tag then His-tag) VH: EVQLVESGGDLVKPGGSLRLSCVASGFTFRDYAMTWVRQAPGKGLQWVSLISGSGGKTYYADAVKGRFTISRDNAKNTLYLQMNSLRAEDTAVYYCAVDRLTRTIRPQYYGLWVWGQGTLVTVSS VL: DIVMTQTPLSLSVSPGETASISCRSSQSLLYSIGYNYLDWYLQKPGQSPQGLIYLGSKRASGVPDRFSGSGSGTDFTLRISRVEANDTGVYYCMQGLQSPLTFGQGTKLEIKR , can you help?
1.5

Quick one: Ratio WT-kd/clone-kd of TB640_005 Fab-SASA VL-T102L (Fab, V domains shown, not shown: SASA tag then His-tag) VH: EVQLVESGGDLVKPGGSLRLSCVASGFTFRDYAMTWVRQAPGKGLQWVSLISGSGGKTYYADAVKGRFTISRDNAKNTLYLQMNSLRAEDTAVYYCAVDRLTKTIRPQYYGLWVWGQGTLVTVSS VL: DIVMTQTPLSLSVSPGETASISCRSSQSLLYSIGYNYLDWYLQKPGQSPQGLIYLGSKRASGVPDRFSGSGSGTDFTLRISRVEANDTGVYYCMQGLQSPLLFGQGTKLEIKR ?
1.7

Bench note: what Ratio WT-kd/clone-kd did TB640_005 Fab-SASA VH-V114G (Fab, V domains shown, not shown: SASA tag then His-tag) VH: EVQLVESGGDLVKPGGSLRLSCVASGFTFRDYAMTWVRQAPGKGLQWVSLISGSGGKTYYADAVKGRFTISRDNAKNTLYLQMNSLRAEDTAVYYCAVDRLTKTIRPQYYGLWGWGQGTLVTVSS VL: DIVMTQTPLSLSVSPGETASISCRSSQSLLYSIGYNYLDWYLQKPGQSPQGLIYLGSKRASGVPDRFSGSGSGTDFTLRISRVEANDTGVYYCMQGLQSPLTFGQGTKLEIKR show?
1.47

Entry TB640_005 Fab-SASA VH-L50M (Fab, V domains shown, not shown: SASA tag then His-tag) VH: EVQLVESGGDLVKPGGSLRLSCVASGFTFRDYAMTWVRQAPGKGLQWVSMISGSGGKTYYADAVKGRFTISRDNAKNTLYLQMNSLRAEDTAVYYCAVDRLTKTIRPQYYGLWVWGQGTLVTVSS VL: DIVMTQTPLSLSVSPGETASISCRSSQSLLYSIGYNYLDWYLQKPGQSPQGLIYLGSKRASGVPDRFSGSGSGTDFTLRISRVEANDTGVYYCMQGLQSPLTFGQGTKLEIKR : reported Ratio WT-kd/clone-kd = ?
0.79

Which value of Ratio WT-kd/clone-kd has been reported for TB640_005 Fab-SASA VL-Q27T (Fab, V domains shown, not shown: SASA tag then His-tag) VH: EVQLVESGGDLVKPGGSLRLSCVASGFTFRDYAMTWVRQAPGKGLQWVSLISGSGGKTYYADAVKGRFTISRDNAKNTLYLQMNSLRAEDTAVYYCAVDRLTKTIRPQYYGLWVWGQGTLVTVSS VL: DIVMTQTPLSLSVSPGETASISCRSSTSLLYSIGYNYLDWYLQKPGQSPQGLIYLGSKRASGVPDRFSGSGSGTDFTLRISRVEANDTGVYYCMQGLQSPLTFGQGTKLEIKR in the records?
0.86
